Origin of the recorded values: patent US6187802A

tested-target: dopamine (DA) reuptake sites (Rattus norvegicus, UniProt P23977)
Construct: Striatal tissue from the brains of male Charles River rats weighing 150-250 g; from tissue; host or cells: rat brain striatum (crude synaptosomes in A1, washed membranes in A4)
Sequence (P23977 whole entry): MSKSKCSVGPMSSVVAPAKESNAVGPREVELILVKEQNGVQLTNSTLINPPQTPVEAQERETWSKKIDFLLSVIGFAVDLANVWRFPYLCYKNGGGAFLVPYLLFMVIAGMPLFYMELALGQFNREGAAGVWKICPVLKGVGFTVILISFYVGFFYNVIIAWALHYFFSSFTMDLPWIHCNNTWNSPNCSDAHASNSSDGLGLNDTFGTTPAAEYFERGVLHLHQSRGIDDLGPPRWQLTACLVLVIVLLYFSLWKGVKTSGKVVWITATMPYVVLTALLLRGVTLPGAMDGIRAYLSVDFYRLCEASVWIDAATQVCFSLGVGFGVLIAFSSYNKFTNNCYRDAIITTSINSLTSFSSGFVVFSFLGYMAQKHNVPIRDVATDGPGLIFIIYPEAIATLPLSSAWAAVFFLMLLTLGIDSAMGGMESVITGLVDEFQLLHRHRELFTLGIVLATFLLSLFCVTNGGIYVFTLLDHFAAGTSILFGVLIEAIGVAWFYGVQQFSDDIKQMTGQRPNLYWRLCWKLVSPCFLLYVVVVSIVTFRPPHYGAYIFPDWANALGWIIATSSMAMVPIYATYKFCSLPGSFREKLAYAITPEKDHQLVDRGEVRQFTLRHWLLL
method-description: displacement of [3H]GBR 12935 from dopamine reuptake sites, striatal membranes
Type: binding
test-parameters: 10^-6 M test compound, [3H]GBR 12935 1 nM, one test only, read-out: DA uptake (% displacement of specific binding of tritiated ligand)
Counter-ions that a name gives are not always drawn.
reported-endpoint: inhibition at 1 µM (%)
Numbers only, in %.

Some solved cases for reference:
compound | unit-symbol | inhibition at 1 µM
Cc1ccc(N=c2scc(C3(c4ccc(Cl)c(Cl)c4)CCC3)n2-c2ccc(C)cc2C)c(C)c1 [Example 31, hydrobromide] | % | 63
Cc1ccc(N=c2scc(C3(c4ccc5ccccc5c4)CCC3)n2-c2ccc(C)cc2)cc1 [Example 50, hydrobromide] | % | 68
CCCCN=c1scc(C2(c3ccc(Cl)c(Cl)c3)CCC2)n1CCCC [Example 18, hydrobromide] | % | 106
c1ccc(CN=c2scc(C3(c4ccc5ccccc5c4)CCC3)n2Cc2ccccc2)cc1 [Example 44, hydrobromide] | % | 96

Now turn to the next compound.
[Q] Would you mind telling me what inhibition at 1 µM value was observed for COc1ccc(CCN=c2scc(C3(c4ccc(Cl)cc4)CCCC3)n2CCc2ccc(OC)c(OC)c2)cc1OC [Example 67, hydrobromide] ?
[A] 88
